measuredOn: chimeric Taq 29-1 (Thermus aquaticus / environmental DNA chimera)
measurementDescription: EMSA
conditionSummary: EMSA: 3 nM DNA, 20 mM Tris-HCl pH 8.8, 10 mM NaCl, 5 mM MgCl2, 14 mM 2-mercaptoethanol, 0.1 mg/ml BSA, 5% glycerol, 40 C, 5 min; 1% agarose gel
endpoint: Kd (µM)
Your answer should be a plain number; it is taken to be in µM.

Prompt: Check chimeric Taq 29-1 (Thermus aquaticus / environmental DNA chimera) data and give Kd for AGCTATGACCATGATTACGAATTGCTT / AGCTACCATGCCTGCACGAATTAAGCAATTCGTAATCATGGTCATAGCT [primed DNA (27mer/49mer)] .
Response: 0.01
